# studySystem: Cbl-b (truncated variant, UniProt number Q13191) (Homo sapiens, UniProt Q13191)
# Construct: made in house
# Sequence (Q13191 36-427): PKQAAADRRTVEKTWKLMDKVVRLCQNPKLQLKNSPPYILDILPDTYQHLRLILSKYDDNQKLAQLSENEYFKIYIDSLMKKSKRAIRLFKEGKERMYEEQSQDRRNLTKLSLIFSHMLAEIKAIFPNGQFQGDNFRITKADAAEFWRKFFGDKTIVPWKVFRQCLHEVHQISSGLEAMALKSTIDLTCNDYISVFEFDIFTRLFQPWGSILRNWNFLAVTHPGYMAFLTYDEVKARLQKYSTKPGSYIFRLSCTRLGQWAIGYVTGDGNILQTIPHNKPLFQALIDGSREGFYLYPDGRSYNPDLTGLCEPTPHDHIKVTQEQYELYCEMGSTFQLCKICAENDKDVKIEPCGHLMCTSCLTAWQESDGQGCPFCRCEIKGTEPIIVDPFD
# method: Cbl-b activity assay (TR-FRET, interaction of Cbl-b with UbcH5B-Ub)
# Type: biochemical
# particulars: high conditions: 100 mM NaCl, 60 nM Src kinase; 12 nM Cbl-b; read-out: Cbl-b activity IC50
# Excerpt: As described in Biological Example 1A, a Cbl-b activity assay (Cbl-b inhibition assay) used to measure the IC50 values for Cbl-b inhibition uses a mixture comprising candidate compound, Cbl-b (truncated, with an Avitag, and biotinylated), a fluorescently-labeled E2 enzyme UbcH5B labelled with ubiquitin conjugated to BODIPY-fluorescein (UbcH5B-Ub), streptavidin-terbium, and assay buffer. […] Inhibition of fluorescence energy transfer indicates Cbl-b activity. […]
pIC50: −log10 of the molar value.
Each record here notes measured pIC50.

[[record]]
compound = "COc1ccc(-c2cn(-c3cccc([C@H](C)Sc4nncn4C)c3)nn2)cc1 [Example 75]"
assayresult = "5.30 to 6.00"

[[record]]
compound = "C[C@H](Sc1nncn1C)c1cccc(NC(=O)N2CCO[C@H]([C@H]3CCCO3)C2)c1 [Example 135]"
assayresult = "≤ 5.30"

[[record]]
compound = "C[C@H](Cc1nncn1C)c1cccc(-c2n[nH]c3c(CN4CC[C@H](F)C4)cc(C(F)(F)F)nc23)c1 [Example 113]"
assayresult = "> 7.00"


[in] Supply pIC50 value. Item: C[C@H](Sc1nncn1C)c1cccc(-n2ncc(-c3ccc(Cl)cc3)n2)c1 [Example 72]
[out] 5.30 to 6.00

[in] Supply pIC50 value. Item: C[C@H](Sc1nncn1C)c1cccc(-n2cc(-c3cccc(CO)c3)nn2)c1 [Example 92]
[out] ≤ 5.30

[in] Supply pIC50 value. Item: Cn1cnnc1C(F)(F)[C@](C)(F)c1cccc(NC(=O)N2CCOc3cccnc32)c1 [Example 24]
[out] 6.00 to 7.00

[in] Supply pIC50 value. Item: Cc1cccc2c1CN(C(=O)Nc1cccc([C@H](C)Cc3nncn3C)c1)C2 [Example 13]
[out] 6.00 to 7.00

[in] Supply pIC50 value. Item: COc1cccc(-c2cn(-c3cccc([C@H](C)Sc4nncn4C)c3)nn2)c1 [Example 77]
[out] 5.30 to 6.00

[in] Supply pIC50 value. Item: C[C@H](Sc1nncn1C)c1cccc(-n2ncc(-c3ccc(C(N)=O)cc3)n2)c1 [Example 86]
[out] 5.30 to 6.00

[in] Supply pIC50 value. Item: C[C@H](Sc1nncn1C)c1cccc(-c2cc(-c3cccc(Cl)c3)no2)c1 [Example 58]
[out] 5.30 to 6.00
